# Test system: diaphorase
# method: fluorescently labeled diaphorase binding to peptide array with or without excess FAD
# reportedConditions: 1 micromolar labeled diaphorase, no FAD; 65535 is detector saturation
recordedMetric: 1 micro no FAD (array fluorescence of bound diaphorase)
// return a plain number; no unit text

Identify measured 1 micro no FAD (array fluorescence of bound diaphorase) associated with KHSFQKELGGSG [array peptide with C-terminal GSG linker]
2086

Identify measured 1 micro no FAD (array fluorescence of bound diaphorase) associated with RFGQNLPLGGSG [array peptide with C-terminal GSG linker]
5802.25

Identify measured 1 micro no FAD (array fluorescence of bound diaphorase) associated with DLFQLVFSGSG [array peptide with C-terminal GSG linker]
5775

Identify measured 1 micro no FAD (array fluorescence of bound diaphorase) associated with KPLAVQKVGSG (KPLAVQKVFGSG) [array peptide with C-terminal GSG linker]
34797.5
